Entry source: paper PMC12064818

# test_system: ABL1-N-HiBiT kinase domain (Homo sapiens, UniProt P00519)
# Sequence (P00519 233-500): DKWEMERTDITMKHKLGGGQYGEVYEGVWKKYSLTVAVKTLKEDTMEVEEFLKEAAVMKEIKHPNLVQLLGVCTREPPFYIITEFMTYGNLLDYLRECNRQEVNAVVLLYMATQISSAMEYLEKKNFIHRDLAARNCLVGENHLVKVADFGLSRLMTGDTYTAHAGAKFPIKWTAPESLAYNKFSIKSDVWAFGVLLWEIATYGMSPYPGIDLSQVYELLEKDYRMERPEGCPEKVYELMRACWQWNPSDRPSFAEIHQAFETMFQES
# test_method_notes: SDR assay, ABL1-N-HiBiT
# experimental_context: ABL1-N-HiBiT qHTS, SDR assay, average maximal response
Structures can show the parent of a compound that is named as a salt.

| compound | test_system | SDR Ave Max Response |
| --- | --- | --- |
| COc1cc(N2CCC(N3CCN(C)CC3)CC2)ccc1Nc1ncc(Cl)c(Nc2ccccc2P(C)(C)=O)n1 | ABL1-N-HiBiT kinase domain (Homo sapiens, UniProt P00519) | 94.56 |
| CN1CCN(c2ccc(Nc3ncc4cc(C#N)c(=O)n(C5CCCC5)c4n3)cc2)CC1 | ABL1-N-HiBiT kinase domain (Homo sapiens, UniProt P00519) | 44.49 |
| CC(C)CCN1c2nc(Nc3cc(F)c(O)c(F)c3)ncc2N(C)C(=O)C1C (centres unmarked) | ABL1-N-HiBiT kinase domain (Homo sapiens, UniProt P00519) | -47.47 |
| CCn1nc(C2CCN(C(=O)CCO)CC2)nc1-c1cnc(N)c(-c2nnc(C(C)(C)C)o2)n1 | ABL1-N-HiBiT kinase domain (Homo sapiens, UniProt P00519) | 63.43 |
| Cc1sc2c(c1C)C(c1ccc(Cl)cc1)=N[C@@H](CC(=O)Nc1ccc(OCCOCCOCCOCCNc3cccc4c3C(=O)N(C3CCC(=O)NC3=O)C4=O)cc1)c1nnc(C)n1-2 (some centres unmarked) | ABL1-N-HiBiT kinase domain (Homo sapiens, UniProt P00519) | 5.73 |
| Cn1ncc(NC(=O)c2nc(-c3c(F)cccc3F)sc2N)c1N1CC[C@@H](N)[C@H](F)CC1 | ABL1-N-HiBiT kinase domain (Homo sapiens, UniProt P00519) | 12.78 |
| CCN1C(=O)CNc2ncc(-c3ccc(-c4nc[nH]n4)nc3C)nc21 | ABL1-N-HiBiT kinase domain (Homo sapiens, UniProt P00519) | 31.14 |
| Cc1n[nH]c2ncc(C(=O)N3CCC[C@H]3c3ccc(Cl)cc3)cc12 | ABL1-N-HiBiT kinase domain (Homo sapiens, UniProt P00519) | 4.30 |
| CC1(C)OCCn2c1nc1c(N3CCOCC3)nc(-c3cnc(N)nc3)nc12 | ABL1-N-HiBiT kinase domain (Homo sapiens, UniProt P00519) | 58.32 |
| Cc1cc(F)ccc1-c1nc(NC(CO)CO)nc2c1ccc(=O)n2-c1c(F)cccc1F | ABL1-N-HiBiT kinase domain (Homo sapiens, UniProt P00519) | -3.68 |
| O=C(NCCCNc1nc(Nc2ccc(N3CCOCC3)cc2)ncc1C1CC1)C1CCC1 [MRT-68601 HCl] | ABL1-N-HiBiT kinase domain (Homo sapiens, UniProt P00519) | -7.81 |
| Cc1ccc(-n2nc(C(C)(C)C)cc2NC(=O)NCc2cc(F)ccc2Oc2ccc3c(cnn3CCO)c2)cc1 | ABL1-N-HiBiT kinase domain (Homo sapiens, UniProt P00519) | 78.07 |
| Cn1cc(-c2cc3c(N4CCN(c5ncc([C@@](C)(N)c6ccc(F)cc6)cn5)CC4)ncnn3c2)cn1 | ABL1-N-HiBiT kinase domain (Homo sapiens, UniProt P00519) | 77.35 |
| Nc1ncc(-c2cnn(CCO)c2)c2scc(-c3ccc(NC(=O)Nc4cccc(F)c4)cc3)c12 | ABL1-N-HiBiT kinase domain (Homo sapiens, UniProt P00519) | 123.93 |
